# assay.remarks: gradient 5% acetonitrile 3 min, to 50% in 2 min, to 85% in 15 min, held 3 min, 100 µL/min
# condition.label: column: Zorbax Extend-C18 2.1 x 50 mm; eluents: water / acetonitrile, 0.1% formic acid
Classes (RP-LC retention time): low-valued (below 700 s), mid-valued (700 s to below 800 s), high-valued (800 s or more)

Example entries begin here.
input: Which class is correct for the following compound? Cc1cccc(C(=O)N2C[C@H](c3nc(-c4ccccc4)no3)[C@@H](C)C2)c1
output: mid-valued

input: Which class is correct for the following compound? NS(=O)(=O)c1ccc(CCNC(=O)c2cccc(-n3cnnn3)c2)cc1
output: low-valued

input: Which class is correct for the following compound? CCC(=O)NCc1nc2c(n1C)CN(S(=O)(=O)c1cccc(Cl)c1)CC2
output: low-valued

input: Which class is correct for the following compound? Cc1cc(C)cc(NS(=O)(=O)c2c(C)sc(C)c2-c2cc(C)[nH]n2)c1
output: high-valued

Further cases:
input: Which class is correct for the following compound? CC1CCC(NC(=O)c2nnc(-c3ccc(S(=O)(=O)N4CCOCC4)cc3)o2)CC1 (centres undefined)
output: high-valued

input: Which class is correct for the following compound? O=C(NC1CCCN(c2ccc(=O)[nH]n2)C1)c1cc2cc(Cl)ccc2[nH]1 (centres undefined)
output: mid-valued
